target: Integrin alpha-V/beta-3 (Homo sapiens, UniProt P05106+P06756)
Sequence (P05106 27-788 limits assumed): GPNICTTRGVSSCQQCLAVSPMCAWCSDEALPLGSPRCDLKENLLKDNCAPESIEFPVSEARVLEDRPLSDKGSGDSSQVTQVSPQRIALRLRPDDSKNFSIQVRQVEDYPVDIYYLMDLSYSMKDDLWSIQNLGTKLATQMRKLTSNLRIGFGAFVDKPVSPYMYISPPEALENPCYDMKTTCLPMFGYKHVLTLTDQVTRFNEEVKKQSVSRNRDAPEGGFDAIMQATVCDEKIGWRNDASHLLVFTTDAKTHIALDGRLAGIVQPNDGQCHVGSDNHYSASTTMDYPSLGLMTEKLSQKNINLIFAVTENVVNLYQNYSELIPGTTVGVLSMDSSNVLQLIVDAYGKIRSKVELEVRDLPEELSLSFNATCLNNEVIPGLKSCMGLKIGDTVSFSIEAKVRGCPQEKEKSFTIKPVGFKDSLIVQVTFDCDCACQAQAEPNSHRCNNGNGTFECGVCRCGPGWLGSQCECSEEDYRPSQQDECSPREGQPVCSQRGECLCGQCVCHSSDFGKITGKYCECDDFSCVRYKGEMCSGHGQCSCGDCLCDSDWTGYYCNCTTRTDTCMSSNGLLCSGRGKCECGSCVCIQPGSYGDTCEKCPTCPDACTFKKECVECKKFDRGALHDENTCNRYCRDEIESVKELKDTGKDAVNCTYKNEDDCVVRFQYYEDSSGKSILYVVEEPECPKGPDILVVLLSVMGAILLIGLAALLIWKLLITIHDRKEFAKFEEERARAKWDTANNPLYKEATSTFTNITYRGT
Sequence (P06756 31-889 partner limits assumed): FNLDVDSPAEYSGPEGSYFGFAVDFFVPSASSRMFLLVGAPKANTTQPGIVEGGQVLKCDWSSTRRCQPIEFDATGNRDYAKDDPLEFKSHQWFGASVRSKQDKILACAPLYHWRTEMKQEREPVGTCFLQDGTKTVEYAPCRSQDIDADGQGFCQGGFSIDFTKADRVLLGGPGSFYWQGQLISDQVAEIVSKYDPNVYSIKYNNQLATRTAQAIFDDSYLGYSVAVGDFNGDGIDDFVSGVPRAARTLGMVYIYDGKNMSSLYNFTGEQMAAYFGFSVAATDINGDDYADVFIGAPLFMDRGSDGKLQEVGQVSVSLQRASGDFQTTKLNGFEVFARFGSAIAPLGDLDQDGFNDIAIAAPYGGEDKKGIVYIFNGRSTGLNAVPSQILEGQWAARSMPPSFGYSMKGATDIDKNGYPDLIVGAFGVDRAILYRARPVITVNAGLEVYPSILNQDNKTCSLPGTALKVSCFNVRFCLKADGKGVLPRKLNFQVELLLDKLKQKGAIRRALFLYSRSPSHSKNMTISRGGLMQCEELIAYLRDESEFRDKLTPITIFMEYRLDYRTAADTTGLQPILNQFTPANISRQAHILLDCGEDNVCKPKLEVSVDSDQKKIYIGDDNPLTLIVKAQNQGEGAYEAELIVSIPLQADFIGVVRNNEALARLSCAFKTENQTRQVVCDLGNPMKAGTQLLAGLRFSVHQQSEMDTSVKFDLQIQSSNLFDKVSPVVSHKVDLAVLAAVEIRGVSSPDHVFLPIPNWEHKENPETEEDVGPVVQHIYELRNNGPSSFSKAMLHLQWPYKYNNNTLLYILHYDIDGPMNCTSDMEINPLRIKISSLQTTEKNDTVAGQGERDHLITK
Sequence (P06756 891-1048 partner limits assumed): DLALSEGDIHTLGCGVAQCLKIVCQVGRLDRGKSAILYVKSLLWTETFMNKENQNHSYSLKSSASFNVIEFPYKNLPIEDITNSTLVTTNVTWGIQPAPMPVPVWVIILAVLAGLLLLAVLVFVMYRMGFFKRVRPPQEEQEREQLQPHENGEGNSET
recorded.endpoint: pIC50
// field semantics: pIC50 = negative decimal log of concentration (mol/L)

Query string: Fill in the blank: the reported pIC50 of "NC(N)=NCCC[C@@H]1NC(=O)CNC(=O)[C@H](CC(=O)O)N[C@@H]2CCC[C@@H]3CC[C@@H](C1=O)N3C2=O" is ____.
Result string: 8.25

====

molecular target: Integrin alpha-V/beta-5 (Homo sapiens); assay: Displacement of [125I]echistatin from integrin alphaVbeta5 receptor in human placenta by microplate scintillation counter
recorded.endpoint: pIC50
Units for pIC50: none; it is -log10 of a concentration expressed in mol/L.

Query string: Item under review: "NC(N)=NCCC[C@@H]1NC(=O)CNC(=O)[C@H](CC(=O)O)N[C@@H]2CCC[C@@H]3CC[C@@H](C1=O)N3C2=O" . Reported pIC50?
Result string: 9.05
